Please provide measured growth for the entries that follow.
Tested on: UACC-62 melanoma
Test: NCI-60 one-dose screen, 48 h (100 = growth as untreated, 0 = no growth, -100 = all killed)
Conditions: 10 µM unless noted
This is part of a sample that, as a whole, favours compounds with a hit. Of some 83,000 tested, about 20% had one in any assay. Activity calls are given as the source filed them. Rule for the calls: active = growth percent below 10; inactive = the rest.

{"Molecule": "COc1ccc(C(=O)c2sc3nc4c(c(-c5cccnc5)c3c2N)CCCC4)cc1OC", "System": "UACC-62 melanoma", "growth": "87.6% (inactive)"}
{"Molecule": "COc1ccc(Nc2c3c4c(cccc4[nH]c2=O)C(=O)c2ccccc2-3)cc1", "System": "UACC-62 melanoma", "growth": "38.3% (inactive)"}
{"Molecule": "CSc1nc2c(c(=O)[nH]1)C1(C(=O)Nc3ccccc31)c1c(nc(SC)[nH]c1=O)N2", "System": "UACC-62 melanoma", "growth": "99.8% (inactive)"}

Kindly give each listed record's growth.
1. Cn1c(=O)[nH]c(=O)c2nc(CCC(=O)NCCC(=O)O)c(=O)[nH]c21
2. CC1=C[C@H]2c3c(c(O)c(O)c4oc5c(C)cccc5c(=O)c34)[C@H](c3cc(O)c(O)c4oc5c(C)cccc5c(=O)c34)[C@H]2C(C)(C)C1
3. O=C(O)c1ccc(NC(=O)c2ccc(-c3cccc([N+](=O)[O-])c3)o2)cc1

[out]
1: 105% (inactive); 2: -43% (active); 3: 98.4% (inactive)

Kindly give each listed record's growth.
1. CN1CCN(Cc2ccc(NC(=O)c3cncc(C#Cc4cncn5ccnc45)c3)cc2C(F)(F)F)CC1
2. C=CC(=O)Nc1cccc(-c2nc(SC)nc(NCc3ccccc3)c2C#N)c1
3. CCN1CCC2(CC1)NC(=O)c1c(c3ccc(Cl)c(Cl)c3n1C)C2C#N (stereo unspecified)
4. CN(C)c1ccc(N=Nc2ccccn2)c(O)c1
5. CCOC(=O)n1cc(-c2nonc2-c2cn(C)c3ncccc23)c2cc(F)ccc21

[out]
18.7% (inactive)
61% (inactive)
-83.2% (active)
-28.3% (active)
62.2% (inactive)

* * *

Test system: SK-MEL-2 melanoma
Experiment: NCI-60 one-dose screen, 48 h (100 = growth as untreated, 0 = no growth, -100 = all killed)
Settings: 10 µM unless noted
Protocol: Growth inhibition of the SK-MEL-2 human tumor cell line is measured as a screen for anti-cancer activity. Cells are grown in 96 well plates and exposed to the test compound for 48 hours. Compounds are tested at a single concentration, which is 10^-5 M for most compounds. The reported endpoint is percent growth (GI% or GIPRCNT), where numbers from 0 - 100% represent growth inhibition, and numbers from -100% - 0 represent cell death. For example, a value of 40 represents 60% growth inhibition. […]
About 83,000 compounds went through this panel and 20% of them were active in at least one assay; those are over-represented in the sample as a whole. Calls of active or inactive are those of the source. The calls were made as follows: active = growth percent below 10; inactive = the rest.
Please provide measured growth for the entries that follow.

Worked cases, growth given:
{"Structure Smiles": "O=C1c2ccccc2C(=O)c2c(N=Nc3[nH]c(=S)[nH]c3O)cccc21", "Measured Metric": "growth", "Obs Value": "24.4% (inactive)"}
{"Structure Smiles": "COC[C@H](C)n1c(C2CCOCC2)nc2cnc3cc(-c4c(C)noc4C)c(OC)cc3c21", "Measured Metric": "growth", "Obs Value": "76.6% (inactive)"}
{"Structure Smiles": "CCCCCC(=O)Oc1ccc(/C(=C(\\C)c2ccc(OC)cc2)c2ccc(OCCN3CCCCC3)cc2)cc1", "Measured Metric": "growth", "Obs Value": "64.7% (inactive)"}
{"Structure Smiles": "C#Cc1cccc(NC(=O)c2ccccc2NC(=O)CCl)c1", "Measured Metric": "growth", "Obs Value": "90.2% [8.25 µM] (inactive)"}

[in] Return value of growth for input COc1ccc(NC(=O)c2ccc(/C=C/C(=O)c3ncc[nH]3)cc2)cc1 , no commentary.
[out] 97.6% (inactive)

* * *

Test system: UACC-257 melanoma
Experiment: NCI-60 one-dose screen, 48 h (100 = growth as untreated, 0 = no growth, -100 = all killed)
Details: 10 µM unless noted
About 83,000 compounds went through this panel and 20% of them were active in at least one assay; those are over-represented in the sample as a whole.
Assign true whenever growth does not fall below 90%; assign false whenever it does.

Would you please look over these solved cases?
{"Molecule": "Cc1nc2ccccc2n1C(=O)C[C@@H]1NC(=S)NC1=O", "Answer Label": "false"}
{"Molecule": "Cc1cc(N2CCN(c3ccnc4cc(Cl)ccc34)CC2)nc(NC2CCCCC2)n1", "Answer Label": "false"}

[in] Check this molecule for growth at or above 90%: Cc1ccc(NC(=O)C2CCC(CN3CCN(C)CC3)CC2)cc1Nc1nccc(-c2cccnc2)n1 (stereo not given)
[out] true

[in] Check this molecule for growth at or above 90%: COc1ccc(CN2c3ccccc3Sc3ccccc32)c(C(F)(F)F)c1
[out] false

[in] Check this molecule for growth at or above 90%: CC(=O)Nc1ccc(S(=O)(=O)Nc2cccc(-c3nc(-c4ccc(NC(=O)c5cccnc5)cc4Cl)no3)c2)cc1
[out] false

[in] Check this molecule for growth at or above 90%: COc1ccc(-c2cc(Nc3ccnc(N4CCOCC4)n3)on2)cc1
[out] false

[in] Check this molecule for growth at or above 90%: COc1cc(-c2nc(C(=O)NCC(=O)NO)nn2-c2ccc(Cl)cc2)cc(OC)c1OC
[out] false

* * *

Please provide measured growth for the entries that follow.
Test system: HS 578T breast
Test: NCI-60 one-dose screen, 48 h (100 = growth as untreated, 0 = no growth, -100 = all killed)
Details: 10 µM unless noted
About 83,000 compounds went through this panel and 20% of them were active in at least one assay; those are over-represented in the sample as a whole.
One number for each entry, in %.

Worked cases, growth given:
{"Compound": "O=C1CC[C@H](c2ccc(O)c3c2C(=O)[C@@H]2O[C@@H]2C3=O)c2cccc(O)c21", "growth (%)": 98.4}
{"Compound": "Cn1cc(C(=O)c2nc(-c3c[nH]c4ccc(F)cc34)no2)c2cc(F)ccc21", "growth (%)": 91.3}
{"Compound": "Cc1ccccc1COc1ccc(-c2onc(C)c2-c2ccc(Cl)cc2)cc1", "growth (%)": 59.4}
{"Compound": "COC(=O)[C@]12CCC(C)(C)C[C@H]1[C@H]1C(=O)C[C@@H]3[C@@]4(C)c5c([nH]c6ccccc6c5=O)C(C)(C)[C@@H]4CC[C@@]3(C)[C@]1(C)CC2", "growth (%)": 87.1}
{"Compound": "O=[N+]([O-])c1ccc2c(c1)Cc1cc(F)ccc1-2", "growth (%)": 95.6}
{"Compound": "COc1ccc(/C=C\\c2cc(OC)c(OC)c(OC)c2)cc1OCC(=O)Nc1ccc2nc(C)sc2c1", "growth (%)": 36.4}

Kindly give each listed record's growth.
1. Nc1n[nH]c2ccc([C@@H]3Nc4cc5c(cc4[C@H]4C6CCC(C6)[C@@H]34)C(=O)NC5)cc12 (some centres undefined)
2. CNc1ccc(-c2cc(=O)oc3ccc(Cl)cc23)cc1
3. CC(O)CN1CC(O)=C(c2nc3ccccc3s2)C1=N (centres undefined)
4. CC1=C[C@H]2c3c(c(O)c(O)c4oc(-c5ccccc5)cc(=O)c34)[C@H](c3cc(O)c(O)c4oc(-c5ccccc5)cc(=O)c34)[C@H]2C(C)(C)C1
5. Cc1ccc(O)c(N2C(=NCc3ccco3)NS(=O)(=O)c3cnccc32)c1
6. O=C1/C(=C/c2ccc(OCCCOc3ccc(Cl)cc3)cc2)N=C2SCCCN12
7. Clc1ccc2c(NCCCCNc3nc(N4CCCCC4)nc4ccccc34)ccnc2c1

[out]
[24.5, 16, 104, 5.98, 113, 107, -19.9]

* * *

System: SF-539 CNS
Test: NCI-60 one-dose screen, 48 h (100 = growth as untreated, 0 = no growth, -100 = all killed)
Details: 10 µM unless noted
Compounds without any hit were thinned out: in the full panel of roughly 83,000, 20% have a hit.
Please provide measured growth for the entries that follow.
Give bare numbers, in %.

Worked cases, growth given:
{"Compound": "Clc1ccc2c(NCCCCNc3nc(N4CCCCC4)nc4ccccc34)ccnc2c1", "Scale Unit": "%", "growth": -86.7}
{"Compound": "CN(C)CCN1C(=O)c2cccc3c(N)ccc(c23)C1=O", "Scale Unit": "%", "growth": 19.4}
{"Compound": "Cc1nc(Nc2ccc(F)c(Cl)c2)sc1C(=O)O", "Scale Unit": "%", "growth": 24.4}
{"Compound": "Nc1n[nH]c2ccc([C@@H]3Nc4ccc5cn[nH]c5c4[C@H]4C5CCC(C5)[C@@H]34)cc12 (stereo partly specified)", "Scale Unit": "%", "growth": -19.6}
{"Compound": "N#CN1CCC[C@H]1C(=O)N1CCc2c(-c3[nH]nc4ncccc34)cccc21", "Scale Unit": "%", "growth": -36.9}

Kindly give each listed record's growth.
1. Cn1cc(-c2nonc2-c2c[nH]c3ccccc23)c2cccnc21
2. CSc1nc(NCCO)c(C#N)c(-c2cccc([N+](=O)[O-])c2)n1

[out]
[41.9, 96.7]

Kindly give each listed record's growth.
1. NNCCc1ccc(NC(=O)CCCc2ccc(/C=C/C(=O)NO)cc2)cc1
2. CC(=O)NCC1c2c(n(C)c3c(Cl)c(Cl)ccc23)C(=O)NC1(C)C (stereo unspecified)
3. CCOc1cc2ncc(C#N)c(Nc3ccc(OCc4cccc(F)c4)c(Cl)c3)c2cc1NC(=O)CCCCC1CCSS1 (stereo unspecified)
4. COc1ccc(/C=C/C(=O)c2cc(O)ccc2O)cc1
5. CC1=C[C@H]2c3c(c(O)c(O)c4oc5cc(O)ccc5c(=O)c34)[C@H](c3cc(O)c(O)c4oc5cc(O)ccc5c(=O)c34)[C@H]2C(C)(C)C1
6. O=[N+]([O-])c1ccccc1/C=N\NC(=S)N/N=C/c1ccccc1[N+](=O)[O-]
7. C[n+]1ccccc1/C=C/c1ccc2cccc(O)c2n1
8. COc1cc(-c2nn(-c3ccc(C)cc3)cc2C(=O)O)ccc1O

[out]
53.3
94.5
108
88.4
20.4
56.3
109
101

Recorded values, source PubChem BioAssay (NCI).
